Parameter: Percent Cross Reactivity. Scope: all listed entries.
- targetSystem: human estrogen receptor (Homo sapiens, UniProt P03372, G400V)
- Sequence (P03372 whole entry G400V): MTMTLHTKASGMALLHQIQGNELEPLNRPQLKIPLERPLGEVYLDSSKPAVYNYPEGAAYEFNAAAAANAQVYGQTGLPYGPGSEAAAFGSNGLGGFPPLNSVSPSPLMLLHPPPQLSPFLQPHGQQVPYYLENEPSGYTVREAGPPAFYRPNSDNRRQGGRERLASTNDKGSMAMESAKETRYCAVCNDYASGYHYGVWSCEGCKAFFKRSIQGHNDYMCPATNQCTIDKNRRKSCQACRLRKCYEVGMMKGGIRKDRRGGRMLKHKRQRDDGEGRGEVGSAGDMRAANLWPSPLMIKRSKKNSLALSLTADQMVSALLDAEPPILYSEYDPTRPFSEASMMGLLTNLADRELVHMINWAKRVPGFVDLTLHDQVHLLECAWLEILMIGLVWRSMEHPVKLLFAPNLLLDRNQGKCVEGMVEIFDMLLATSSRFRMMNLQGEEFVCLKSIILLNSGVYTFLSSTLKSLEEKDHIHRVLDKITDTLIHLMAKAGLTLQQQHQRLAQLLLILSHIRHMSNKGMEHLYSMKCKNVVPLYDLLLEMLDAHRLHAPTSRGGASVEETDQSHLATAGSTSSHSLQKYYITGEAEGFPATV
- measurementSetup: cross-activity determined at concentration of 50% maximum potency; 17-β Estradiol = 100

compound | Percent Cross Reactivity
C[C@]12CCC(=O)C=C1CC[C@@H]1[C@@H]2CC[C@]2(C)C(=O)CC[C@@H]12 [Androstenedione] | <0.05%

Value of Percent Cross Reactivity reported for the compound C[C@]12CC[C@@H]3c4ccc(O)cc4CC[C@H]3[C@@H]1C[C@@H](O)C2=O [16-Hydroxyestrone] is 4.0%

Value of Percent Cross Reactivity reported for the compound C[C@]12CC[C@H](O)CC1=CC[C@@H]1[C@@H]2CC[C@]2(C)C(=O)CC[C@@H]12 [Dehydroepiandrosterone] is <0.05%

Value of Percent Cross Reactivity reported for the compound C[C@H]1CC(=O)C[C@@H]2CC[C@H]3[C@@H]4CC[C@H](O)[C@@]4(C)CC[C@@H]3[C@]21C [Mesterolone] is <0.05%

Value of Percent Cross Reactivity reported for the compound C#C[C@]1(O)CC[C@H]2[C@@H]3CCC4=Cc5oncc5C[C@]4(C)[C@H]3CC[C@@]21C [Danasol] is <0.025%

Value of Percent Cross Reactivity reported for the compound C[C@]12CC[C@H]3[C@@H](CCC4=CC(=O)CC[C@@]43C)[C@@H]1CC[C@@H]2O [Testosterone] is <0.05%

Value of Percent Cross Reactivity reported for the compound CC(=O)[C@H]1CC[C@H]2[C@@H]3CCC4=CC(=O)CC[C@]4(C)[C@H]3CC[C@]12C [Progesterone] is <0.025%

Value of Percent Cross Reactivity reported for the compound C[C@]12C[C@H](O)[C@H]3[C@@H](CCC4=CC(=O)CC[C@@]43C)[C@@H]1CC[C@@H]2C(=O)CO [Corticosterone] is <0.025%

Value of Percent Cross Reactivity reported for the compound COc1cc2c(cc1O)CC[C@@H]1[C@@H]2CC[C@]2(C)C(=O)CC[C@@H]12 [2-Methoxyestrone] is <0.25%
